This collection of values is drawn from PubChem BioAssay (NCI).

TGI overview
Tested on: HOP-92 NSCLC
Measurement protocol: NCI tumour cell line growth inhibition, 48 h
Quantity: TGI

• O=[N+]([O-])c1ccc(/C=C/c2ccc(N=Nc3ccc(/C=C/c4ccc([N+](=O)[O-])cc4S(=O)(=O)O)c(S(=O)(=O)O)c3)cc2S(=O)(=O)O)c(S(=O)(=O)O)c1 = > 94.3 µM
• COc1ccc(-c2cc(-c3ccc(Nc4ccnc5cc(C(F)(F)F)ccc45)cc3)[nH]c(=O)c2C#N)c2ccccc12 = > 100 µM
• OC1C(O)C(O)C(O)C(O)C1O (centres undefined) = > 1000 µM
• C/C=C(/C)C(=O)O[C@@H]1c2c(C)coc2C[C@H]2CC[C@H](O)[C@H](C)[C@]21C = > 100 µM

---

Test system: HL-60(TB) leukemia
Measurement protocol: NCI tumour cell line growth inhibition, 48 h
Quantity: TGI

• O=[N+]([O-])CC(SCc1ccccc1)c1ccc2c(c1)OCO2 (stereo not drawn) = 3.68 µM
• C=C1CC/C=C(/C(=O)O)CC[C@H]2[C@@H]1CC2(C)C = > 100 µM
• Cn1ccc(=Nc2ccc(NC(=O)c3ccc(N=c4ccn(C)c5ccc([N+](=O)[O-])cc45)cc3)cc2)cc1 = > 100 µM

---

In this section, each of the compounds is paired with its reported TGI.
Tested on: OVCAR-3 ovarian
Measurement protocol: NCI tumour cell line growth inhibition, 48 h
Quantity: TGI

* Nc1ccc(C#Cc2cncnc2Nc2ccc(OCc3cccc(F)c3)c(Cl)c2)cc1 | > 25 µM
* CCOc1ccccc1NC(=O)CCc1nnc2s/c(=C\CCc3ccccc3)c(=O)n12 | > 100 µM
* CN1N=C2c3ccccc3CC[C@H]2C1c1ccccc1 (some centres not stated) | > 100 µM
* N=c1c2c3n(c4c(=O)n(-c5ccccc5)c(=S)n(c(=O)n1-c1ccccc1)c24)CCCCC3 | > 100 µM
* COC(=O)c1c2c(c(C)[n+]([O-])c1C)C(=O)C=C(NCc1cccc(OC)c1)C2=O | 0.743 µM
* N#C/C(=C/c1cccnc1)C(=O)c1ccccc1 | > 100 µM
* COc1ncc(-c2nc3c(n2C(C)C)[C@H](c2ccc(Cl)cc2)N(c2cc(Cl)cn(C)c2=O)C3=O)c(OC)n1 | > 100 µM
* N#C/C(=C\c1ccc(Br)cc1)n1nnc2cccc(F)c21 | 2.15 µM
* CCCCCCCCOc1ccc(/C=N/Nc2cc(C)nc3ccc(Cl)cc23)cc1 | 3.82 µM
* OCCSCCCSCCO | > 100 µM
* CCOC(OCC)C(CC)[Se]c1ccccc1[N+](=O)[O-] (configuration not stated) | 6.56 µM
* O=C1c2ccccc2S(=O)(=O)N1CSC(=S)N1CCCC1 | > 100 µM
* COc1cccc(NCC(=O)Nn2c(-c3ccccc3)nc3ccccc3c2=O)c1 | > 100 µM
* COc1cc2cc(Oc3ccc(NC(=O)Nc4ccccc4)cc3)c(C)nc2cc1OCCN1CCCCC1 | 13.3 µM
* CC(C)(C)OC(=O)C1=C(C(=O)OC(C)(C)C)SC2(S1)C(C(=O)OC(C)(C)C)=C(C(=O)OC(C)(C)C)Sc1c2ssc1=O | > 100 µM
* Cc1ccc(NC(=O)CC(=O)n2nc(-c3ccccc3)c(N=Nc3ccc(Cl)cc3)c2-c2ccccc2)cc1 | > 100 µM
* N#Cc1c[nH]n2ccnc12 | > 100 µM
* O=C(O)CCC1COc2ccccc2O1 (configuration not stated) | > 10 µM
* O=[N+]([O-])c1ccc(/C=C/c2ccc(N=Nc3ccc(/C=C/c4ccc([N+](=O)[O-])cc4S(=O)(=O)O)c(S(=O)(=O)O)c3)cc2S(=O)(=O)O)c(S(=O)(=O)O)c1 | > 100 µM
* FC(F)(F)c1ccc2c(c1)nc(Cc1ccccc1)n2C[C@@H]1CCCN2CCCCC12 (some centres not stated) | 28 µM
* CCC(=O)OCc1ccc2oc(=O)c(C(=O)Oc3cncc(Cl)c3)cc2c1 | > 100 µM
* COC(=O)c1ccc2n1C1CC3CC(CC2C3)C1 | > 100 µM
* CC12O[C@H](c3ccccc3)[C@H](c3ccccc3)N1C(=O)C1(C(=O)OCc3ccccc3)CC12 (some centres not stated) | > 100 µM
* COC(=O)c1ccccc1NC(=O)C(=O)CC(=O)c1ccccc1NC1=CC(=O)C(=O)c2ccccc21 | 12.3 µM
* CCOC(=O)/C=C1\SC(=Nc2ccc(C#N)cc2)N(CCN2C(=O)/C(=C/C(=O)OCC)SC2=Nc2ccc(C#N)cc2)C1=O | 3.27 µM
* COc1ccc(/C=C(/C(=O)N2CCCC2)c2cc(OC)c(OC)c(OC)c2)cc1N | 6.34 µM
* NC(=O)c1n[nH]n(-c2ccccc2)c1=O | > 100 µM
* CCCn1cnc2c(NN=O)ncnc21 | > 100 µM
* Cc1cccc2sc(NC(=O)c3cc([N+](=O)[O-])ccc3Cl)nc12 | 17.4 µM
* O=c1c2cc(Br)ccc2oc2nc3n(c(=O)c12)CCCS3 | > 100 µM
* COc1cc(/C=C/C(=O)c2cc(F)c(Cl)cc2Cl)cc(OC)c1OC | 40 µM
* O=C(O)c1c(CC(Cc2ccc3c(c2)CCCC3)C(=O)O)ccc2c1CCCC2 (configuration not stated) | > 100 µM
* N#C/C(=C/C=C(\Cl)c1ccc(Cl)cc1)C(N)=O | 1.76 µM
* Oc1ccc(-c2nc3cc(C(F)(F)F)ccc3n2CC2CCCN3CCCCC23)cc1 (configuration not stated) | 27 µM
* O=S(=O)(O)CCS | > 100 µM
* O=S(=O)(NC(=S)Nc1ccccc1)c1ccc(N2N=C3c4ccccc4CC3C2c2cccs2)cc1 (configuration not stated) | 46.9 µM
* Cn1cc2c(n1)c(N/N=C/c1ccccc1)nn1nnnc21 | > 100 µM
* O=C(CC/C(C/C(=N/O)c1ccc(F)cc1)=N/O)N(Cc1ccccc1)Cc1ccccc1 | > 100 µM
* O=C1C=CC(=O)C1(Br)Br | 31.4 µM
* Cc1ccc(S(=O)(=O)CNC(=S)CCCC(=S)NCS(=O)(=O)c2ccc(C)cc2)cc1 | > 100 µM
* COc1ccc(C(=O)N2CCN(c3ccc4c(c3)OCC(=O)N4)CC2)cc1 | > 100 µM
* O=C(O)c1cc2ccccc2c(N=Nc2c([N+](=O)[O-])cc([N+](=O)[O-])cc2S(=O)(=O)O)c1O | > 100 µM

---

System: HCT-116 colon
Measurement protocol: NCI tumour cell line growth inhibition, 48 h
TGI values by entry
Quantity: TGI

• Cc1cc(Cc2cc(C)c(NC(=O)C(=O)C3C(=O)NC(=S)NC3=O)c(C(C)C)c2)cc(C(C)C)c1NC(=O)C(=O)C1C(=O)NC(=S)NC1=O = > 100 µM
• NCCNCC(O)CO (centres undefined) = > 100 µM
• CC1(C)OCC2OC3([C@H](O)CCO)OC(C)(C)OC3C2O1 (some centres undefined) = > 100 µM
• COc1c2ccccc2c(O)c2c(=O)c(C(=O)O)cn(C)c12 = > 100 µM
• CN(C)c1ccc(/C=C2\CNC/C(=C\c3ccc(N(C)C)cc3)C2=O)cc1 = 35.1 µM
• C=C(CN(CC(=C)C(=O)c1ccccc1)C(C)(C)C)C(=O)c1ccccc1 = 26.8 µM
• C#CCN1CCN(C(=S)N/N=C(\C)c2ccccn2)CC1 = 1.22 µM
• Cn1ccc(=Nc2ccc(NC(=O)c3ccc(N=c4ccn(C)c5ccc([N+](=O)[O-])cc45)cc3)cc2)cc1 = > 100 µM
• O=c1cccc(C#Cc2ccccc2)o1 = 26.2 µM
• COc1cc(/C=C2\N=C(c3ccccc3)N(C3Nc4cc5c(cc4S3)NC(N3C(=O)/C(=C/c4cc(OC)c(OC)c(OC)c4)N=C3c3ccccc3)S5)C2=O)cc(OC)c1OC (centres undefined) = > 100 µM
• N#Cc1c(=O)c2cc([N+](=O)[O-])ccc2n2c1[nH]c1ccccc12 = > 40.1 µM
• COc1nn(Cc2ccccc2F)c2ccc([N+](=O)[O-])cc12 = > 100 µM
• CCOP(=O)(CC(=O)C1=C(O)C(CCCNC(=O)OC(C)(C)C)N(Cc2ccc(OC)c(OC)c2)C1=O)OCC (centres undefined) = > 100 µM
• C/C=C(/C)C(=O)O[C@@H]1c2c(C)coc2C[C@H]2CC[C@H](O)[C@H](C)[C@]21C = > 100 µM
• CCCn1cnc2c(NN=O)ncnc21 = > 100 µM
• O=C1C(Cl)=C(Nc2ccc3cn[nH]c3c2)C(=O)c2ccccc21 = 2.78 µM
• NC(=O)c1n[nH]n(-c2ccccc2)c1=O = > 100 µM
• CC(C)(C)c1cc(-c2ccc(-c3cc(C(C)(C)C)c(O)c(C(C)(C)C)c3)cc2)cc(C(C)(C)C)c1O = > 100 µM
• O=C1Oc2ccccc2C(=O)/C1=C/N1C(=O)/C(=C/c2ccc([N+](=O)[O-])cc2)SC1=S = 50.2 µM
